Quick list: remaining activity at 0.1 µM per entry.
# system: human GIP-R (Homo sapiens)
# Construct: expressed in transfected cells; host or cells: Chinese Hamster Lung (CHL) fibroblast cells, stably transfected
# Sequence (P48546 22-466): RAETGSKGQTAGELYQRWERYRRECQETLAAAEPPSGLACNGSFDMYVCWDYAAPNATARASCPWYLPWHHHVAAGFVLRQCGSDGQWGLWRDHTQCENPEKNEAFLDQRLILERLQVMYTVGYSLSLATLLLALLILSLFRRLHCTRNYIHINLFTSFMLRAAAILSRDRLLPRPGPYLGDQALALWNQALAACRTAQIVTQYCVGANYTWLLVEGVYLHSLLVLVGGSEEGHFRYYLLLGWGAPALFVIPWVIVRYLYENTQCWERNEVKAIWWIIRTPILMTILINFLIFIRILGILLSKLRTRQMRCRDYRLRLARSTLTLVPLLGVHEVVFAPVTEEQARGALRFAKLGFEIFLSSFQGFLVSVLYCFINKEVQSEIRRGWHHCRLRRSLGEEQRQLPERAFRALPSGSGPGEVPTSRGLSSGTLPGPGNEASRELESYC
# methodNotes: Cyclic AMP production in GIP-R transfected CHL cells
# Type: cell-based
# studyConditions: CHL, read-out: cAMP response in presence of 10^-7 M GIP (% GIP max)
Square brackets hold non-standard residues; d marks the D form. Ends that are not written are not given here. Hyp = O=C(O)[C@@H]1C[C@@H](O)CN1
State just the number; it will be interpreted in %.

substance: YAPGTFISDYSIAMDKIHQQDFVNWLLAQKGKKNDWKHNITQ [(Pro^3)GIP]
system: human GIP-R (Homo sapiens)
remaining activity at 0.1 µM [%]: 66

stdin: Can you look up remaining activity at 0.1 µM on human GIP-R (Homo sapiens) for YAWGTFISDYSIAMDKIHQQDFVNWLLAQKGKKNDWKHNITQ [(Trp^3)GIP] ?
stdout: 78

stdin: Look up remaining activity at 0.1 µM with human GIP-R (Homo sapiens) for this substance: YAFGTFISDYSIAMDKIHQQDFVNWLLAQKGKKNDWKHNITQ [(Phe^3)GIP]
stdout: 62

stdin: Lookup: remaining activity at 0.1 µM / human GIP-R (Homo sapiens) / YAKGTFISDYSIAMDKIHQQDFVNWLLAQKGKKNDWKHNITQ [(Lys^3)GIP]
stdout: 63.5

stdin: Look up remaining activity at 0.1 µM with human GIP-R (Homo sapiens) for this substance: YAAGTFISDYSIAMDKIHQQDFVNWLLAQKGKKNDWKHNITQ [(Ala^3)GIP]
stdout: 88

stdin: API: value(readout=remaining activity at 0.1 µM, system=human GIP-R (Homo sapiens)) for record YAYGTFISDYSIAMDKIHQQDFVNWLLAQKGKKNDWKHNITQ [(Tyr^3)GIP]
stdout: 76

stdin: Return remaining activity at 0.1 µM measured with human GIP-R (Homo sapiens) given this substance: YA[Hyp]GTFISDYSIAMDKIHQQDFVNWLLAQKGKKNDWKHNITQ [(Hyp^3)GIP]
stdout: 56

====

# system: DPP-IV (Homo sapiens, UniProt P27487)
# Sequence (P27487 whole entry, species assumed): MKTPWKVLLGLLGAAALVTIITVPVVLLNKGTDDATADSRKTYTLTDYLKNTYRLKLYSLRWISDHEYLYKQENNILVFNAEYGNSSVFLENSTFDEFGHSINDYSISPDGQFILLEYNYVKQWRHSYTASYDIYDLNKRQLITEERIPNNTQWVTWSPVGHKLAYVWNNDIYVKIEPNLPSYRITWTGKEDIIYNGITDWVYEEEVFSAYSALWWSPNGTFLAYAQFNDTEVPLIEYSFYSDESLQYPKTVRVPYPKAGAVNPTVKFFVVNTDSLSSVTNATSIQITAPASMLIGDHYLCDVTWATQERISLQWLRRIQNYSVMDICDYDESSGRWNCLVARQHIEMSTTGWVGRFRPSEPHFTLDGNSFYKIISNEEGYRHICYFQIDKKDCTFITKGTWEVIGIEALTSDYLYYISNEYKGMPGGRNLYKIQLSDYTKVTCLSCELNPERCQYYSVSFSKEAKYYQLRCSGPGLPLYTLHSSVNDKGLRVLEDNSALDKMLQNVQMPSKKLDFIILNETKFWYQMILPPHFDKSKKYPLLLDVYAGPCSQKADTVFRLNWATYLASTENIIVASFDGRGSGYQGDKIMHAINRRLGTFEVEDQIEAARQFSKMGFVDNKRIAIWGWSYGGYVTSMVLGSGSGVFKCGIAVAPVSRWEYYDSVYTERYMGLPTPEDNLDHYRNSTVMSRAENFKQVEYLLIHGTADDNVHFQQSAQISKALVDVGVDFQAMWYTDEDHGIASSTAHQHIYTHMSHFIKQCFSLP
# methodNotes: Degradation of GIP and Glu3-substituted GIP analogs by DPP-IV (HPLC)
# Type: in vitro ADME
# studyConditions: words, up to 8 hours incubation
Square brackets hold non-standard residues; d marks the D form. Ends that are not written are not given here. Hyp = O=C(O)[C@@H]1C[C@@H](O)CN1

substance: YA[Hyp]GTFISDYSIAMDKIHQQDFVNWLLAQKGKKNDWKHNITQ [(Hyp^3)GIP]
system: DPP-IV (Homo sapiens, UniProt P27487)
resistance to DPP-IV degradation: completely resistant
//
substance: YAPGTFISDYSIAMDKIHQQDFVNWLLAQKGKKNDWKHNITQ [(Pro^3)GIP]
system: DPP-IV (Homo sapiens, UniProt P27487)
resistance to DPP-IV degradation: completely resistant

====

# system: DPP-IV (Homo sapiens)
# methodNotes: Degradation of GIP and Glu3-substituted GIP analogs by DPP-IV (HPLC)
# Assay type: in vitro ADME
# studyConditions: isolated DPP-IV enzyme (5 mU); incubation with DPP-IV (5 mU), 37°C, pH 7.8, 4 hrs; read-out: Intact Peptide Remaining (%) 4 hrs.
Square brackets hold non-standard residues; d marks the D form. Ends that are not written are not given here. * marks the point of attachment. Palmitoyl = CCCCCCCCCCCCCCCC(=O)*; Hyp = O=C(O)[C@@H]1C[C@@H](O)CN1
outcomeMeasure: remaining at 4 h, 2 μm (%)
Express your answer in %, writing the number without its unit.

The following substances have reported results that may help.
substance: YAPGTFISDYSIAMDK(Palmitoyl)IHQQDFVNWLLAQKGKKNDWKHNITQ [(Pro^3)LysPAL^16GIP]
unitDescriptor: %
remaining at 4 h, 2 μm: 100
--
substance: YAYGTFISDYSIAMDKIHQQDFVNWLLAQKGKKNDWKHNITQ [(Tyr^3)GIP]
unitDescriptor: %
remaining at 4 h, 2 μm: 6.3
--
substance: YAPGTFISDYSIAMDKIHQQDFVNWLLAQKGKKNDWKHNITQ [(Pro^3)GIP]
unitDescriptor: %
remaining at 4 h, 2 μm: 100
--
substance: YA[Hyp]GTFISDYSIAMDKIHQQDFVNWLLAQKGKKNDWKHNITQ [(Hyp^3)GIP]
unitDescriptor: %
remaining at 4 h, 2 μm: 100

stdin: Look at this substance and give its reported remaining at 4 h, 2 μm. YAAGTFISDYSIAMDKIHQQDFVNWLLAQKGKKNDWKHNITQ [(Ala^3)GIP]
stdout: 2.7

stdin: Which remaining at 4 h, 2 μm value is on record for YAWGTFISDYSIAMDKIHQQDFVNWLLAQKGKKNDWKHNITQ [(Trp^3)GIP] ?
stdout: 4.7

stdin: remaining at 4 h, 2 μm for YA[Hyp]GTFISDYSIAMDK(Palmitoyl)IHQQDFVNWLLAQKGKKNDWKHNITQ [(Hyp^3)LysPAL^16GIP] ?
stdout: 100

stdin: For the substance shown here, YAKGTFISDYSIAMDKIHQQDFVNWLLAQKGKKNDWKHNITQ [(Lys^3)GIP] , give the reported remaining at 4 h, 2 μm.
stdout: 14.9

stdin: Which remaining at 4 h, 2 μm value belongs to YAFGTFISDYSIAMDKIHQQDFVNWLLAQKGKKNDWKHNITQ [(Phe^3)GIP] ?
stdout: 2.5

====

# system: DPP-IV (Homo sapiens, UniProt P27487)
# methodNotes: Degradation of GIP and Glu3-substituted GIP analogs by DPP-IV (HPLC)
# Assay type: in vitro ADME
# studyConditions: isolated DPP-IV enzyme (5 mU); incubation with DPP-IV (5 mU), 37°C, pH 7.8, 8 hrs; read-out: Intact Peptide Remaining (%) 8 hrs.
Square brackets hold non-standard residues; d marks the D form. Ends that are not written are not given here. * marks the point of attachment. Palmitoyl = CCCCCCCCCCCCCCCC(=O)*; Hyp = O=C(O)[C@@H]1C[C@@H](O)CN1
Entries and their remaining at 8 h, 2 μm
Number only, in %; omit the unit.

substance: YAPGTFISDYSIAMDK(Palmitoyl)IHQQDFVNWLLAQKGKKNDWKHNITQ [(Pro^3)LysPAL^16GIP]
remaining at 8 h, 2 μm [%]: 100
//
substance: YA[Hyp]GTFISDYSIAMDK(Palmitoyl)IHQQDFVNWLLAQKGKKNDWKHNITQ [(Hyp^3)LysPAL^16GIP]
remaining at 8 h, 2 μm [%]: 100
//
substance: YAWGTFISDYSIAMDKIHQQDFVNWLLAQKGKKNDWKHNITQ [(Trp^3)GIP]
remaining at 8 h, 2 μm [%]: 0
//
substance: YAFGTFISDYSIAMDKIHQQDFVNWLLAQKGKKNDWKHNITQ [(Phe^3)GIP]
remaining at 8 h, 2 μm [%]: 0
//
substance: YAYGTFISDYSIAMDKIHQQDFVNWLLAQKGKKNDWKHNITQ [(Tyr^3)GIP]
remaining at 8 h, 2 μm [%]: 0
//
substance: YAKGTFISDYSIAMDKIHQQDFVNWLLAQKGKKNDWKHNITQ [(Lys^3)GIP]
remaining at 8 h, 2 μm [%]: 0

stdin: Look up remaining at 8 h, 2 μm for this substance: YAAGTFISDYSIAMDKIHQQDFVNWLLAQKGKKNDWKHNITQ [(Ala^3)GIP]
stdout: 0

stdin: # query: remaining at 8 h, 2 μm of entry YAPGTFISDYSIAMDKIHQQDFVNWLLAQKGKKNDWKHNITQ [(Pro^3)GIP]
stdout: 100

stdin: Entry YA[Hyp]GTFISDYSIAMDKIHQQDFVNWLLAQKGKKNDWKHNITQ [(Hyp^3)GIP] : reported remaining at 8 h, 2 μm = ?
stdout: 100

Reference source: patent US20090170762A1
